- TARGET_OR_SYSTEM: Cytochrome P450 3A4 (Homo sapiens, UniProt P08684)
- Sequence (P08684 whole entry): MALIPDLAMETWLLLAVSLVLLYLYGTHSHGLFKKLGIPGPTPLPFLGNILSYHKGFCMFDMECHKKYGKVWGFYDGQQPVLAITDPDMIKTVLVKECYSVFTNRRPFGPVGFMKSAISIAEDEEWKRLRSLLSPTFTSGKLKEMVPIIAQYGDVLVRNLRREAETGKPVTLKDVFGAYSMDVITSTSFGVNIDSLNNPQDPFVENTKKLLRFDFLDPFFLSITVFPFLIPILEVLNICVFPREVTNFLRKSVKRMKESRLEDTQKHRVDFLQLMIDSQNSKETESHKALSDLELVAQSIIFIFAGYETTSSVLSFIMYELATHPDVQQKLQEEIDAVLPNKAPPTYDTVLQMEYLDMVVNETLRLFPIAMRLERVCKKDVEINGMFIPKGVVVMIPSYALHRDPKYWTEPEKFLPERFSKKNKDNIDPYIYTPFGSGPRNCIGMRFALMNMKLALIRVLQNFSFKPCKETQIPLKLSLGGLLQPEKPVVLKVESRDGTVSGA
- METHOD_NOTES: Inhibition of recombinant CYP3A4 expressed in baculovirus-infected insect microsomes
- Assay type: ADME, Microsome
pIC50: −log10 of the molar value.
QUANTITY: pIC50

Past entries and their recorded results:
INSERT INTO measurements (molecule, observed_measurement) VALUES
  ('OC1(c2ccncc2)CCCc2cc(-c3ccc(F)c(F)c3)ccc21 (configuration not stated)', 4.86),
  ('COc1ccc(-c2ccc3c(c2)CCC3(O)c2ccncc2)cc1 (configuration not stated)', 5.48),
  ('Fc1ccc(-c2ccc3c(c2)CC=C3c2cccnc2)cc1', 5.16),
  ('OC1(c2ccncc2)CCc2cc(-c3ccc(F)cc3)ccc21 (configuration not stated)', 5.49);

A = Oc1ccc(-c2ccc3c(c2)CCC=C3c2ccncc2)cc1F
B = OC1(c2ccncc2)CCCc2cc(-c3ccc(F)cc3)ccc21 (configuration not stated)
C = Fc1ccc(-c2ccc3c(c2)CCC3c2ccncc2)cc1 (configuration not stated)
Rank by pIC50 (largest to smallest). Please list the labels in the order you were asked to rank them. C, A, B
(C: 5.96, A: 5.67, B: 5.06)

Taken from ChEMBL document CHEMBL1156598.
